- Test system: Lolium perenne (LOLPE)
- Assay: Glasshouse assay for herbicidal activity (pre- and post-emergence), percentage phytotoxicity
- Format: in vivo
- Measurement Setup: Lolium perenne, pre-emergence, 480 h, Rate 250 g/ha; pre-emergence; visual assessment 20 DAA; 100%=total damage, 0%=no damage; read-out: Pre-emergence herbicidal activity (percentage phytotoxicity) LOLPE PRE
The entries below come with measured pest or weed control at 250 g/ha values attached.
Your answer should be a plain number; it is taken to be in %.

                                   molecule            assay_target  units_text  result_number
0  COCC(C)NC(=O)CC1CC(=O)C(c2c(C)cc(-c3ncc(Cl)cn3)cc2C)C1=O (stereo not drawn) [Compound B346]  Lolium perenne (LOLPE)           %            100
1  COc1ccc(CNC(=O)CC2CC(=O)C(c3c(C)cc(-c4ccc(Cl)cn4)cc3C)C2=O)cc1 (stereo not drawn) [Compound B380]  Lolium perenne (LOLPE)           %             80

I have this molecule here, Cc1cc(-c2ncc(Cl)cn2)cc(C)c1C1C(=O)CC(CC(=O)NCc2cccc(Cl)c2)C1=O (stereo not drawn) [Compound B354] , and I need its recorded pest or weed control at 250 g/ha. 80

====

The entries below come with measured pest or weed control at 250 g/ha values attached.
- System: Alopecurus myosuroides (ALOMY)
- Assay: Glasshouse assay for herbicidal activity (pre- and post-emergence), percentage phytotoxicity
- Assay type: in vivo
- Measurement Setup: Alopecurus myosuroides, pre-emergence, 480 h, Rate 250 g/ha; pre-emergence; visual assessment 20 DAA; 100%=total damage, 0%=no damage; read-out: Pre-emergence herbicidal activity (percentage phytotoxicity) ALOMY PRE
Your answer should be a plain number; it is taken to be in %.

Sample answers from the record:
                                   molecule  result_number
0  Cc1cc(-c2ccc(Cl)cn2)cc(C)c1C1C(=O)CC(CC(=O)NCc2cccc(Br)c2)C1=O (stereo not shown)             90
1  Cc1cc(-c2ccc(Cl)cn2)cc(C)c1C1C(=O)CC(CC(=O)NCc2cccs2)C1=O (stereo not shown)             70
2  COCCCNC(=O)CC1CC(OC(=O)C(C)(C)C)=C(c2c(C)cc(C)cc2C)C1=O (stereo not shown)             90
3  CC#Cc1cc(C)c(C2C(=O)CC(CC(=O)NC(C)(C)C#N)C2=O)c(C)c1 (stereo not shown)             90
4  COc1ccc(CNC(=O)CC2CC(=O)C(c3c(C)cc(-c4ccc(Cl)cn4)cc3C)C2=O)cc1 (stereo not shown)             70

I have this molecule here, C#CCNC(=O)CC1CC(=O)C(c2c(C)cc(-c3ccc(F)cn3)cc2C)C1=O (stereo not shown) , and I need its recorded pest or weed control at 250 g/ha. 90

I have this molecule here, C#CCN(C)C(=O)CC1CC(=O)C(c2c(C)cc(-c3ccc(Cl)cn3)cc2C)C1=O (stereo not shown) , and I need its recorded pest or weed control at 250 g/ha. 100

I have this molecule here, CCN(C)C(=O)CC1CC(=O)C(c2c(C)cc(-c3ncc(Cl)cn3)cc2C)C1=O (stereo not shown) , and I need its recorded pest or weed control at 250 g/ha. 100

I have this molecule here, Cc1cc(-c2ccc(F)cn2)cc(C)c1C1C(=O)CC(CC(=O)NCc2cccc(Cl)c2)C1=O (stereo not shown) , and I need its recorded pest or weed control at 250 g/ha. 80

I have this molecule here, Cc1cc(-c2ccc(Cl)cn2)cc(C)c1C1C(=O)CC(CC(=O)N(C)C(C)C)C1=O (stereo not shown) , and I need its recorded pest or weed control at 250 g/ha. 90

I have this molecule here, Cc1cc(-c2ccc(Cl)cn2)cc(C)c1C1C(=O)CC(CC(=O)NC(C)C)C1=O (stereo not shown) , and I need its recorded pest or weed control at 250 g/ha. 100
